Tested on: ACHN
ASSAY_METHOD_TEXT: NCI tumour cell line growth inhibition, 48 h
Calls of active or inactive are those of the source. Cut-off read from the data, not from the text of the source: active = GI50 up to about 1.1 µM and inactive = higher.
REPORTED_PROPERTY: GI50

Example cases with answers are listed next.
COMPOUND: CN(C)/N=N/c1nc2c(c(=O)n(C)c(=O)n2C)n1CC(O)CO (stereo unspecified)
TESTED_ON: ACHN
GI50: > 100 µM (inactive)
//
COMPOUND: CC(C)(C)C1CCC2c3c([nH]c4ncccc34)C3C(=O)N(c4ccccc4)C(=O)C3C2C1 (stereo unspecified)
TESTED_ON: ACHN
GI50: > 100 µM (inactive)
//
COMPOUND: CCOC(=O)c1ccc(/N=N\c2ccc(N(CCC#N)CCC#N)cc2C)cc1
TESTED_ON: ACHN
GI50: > 100 µM (inactive)
//
COMPOUND: Oc1cc(-c2cccc(OC(F)(F)F)c2)nc2cc3c(cc12)OCO3
TESTED_ON: ACHN
GI50: > 32.7 µM (inactive)
//
COMPOUND: NC(=O)CC(N/C=C1/N=C(c2ccccc2)OC1=O)C(=O)O (stereo unspecified)
TESTED_ON: ACHN
GI50: > 100 µM (inactive)

Now let's try a different one.
Name the reported GI50 value associated with the compound O=C1c2ccccc2C(=O)c2c1cc(S(=O)(=O)O)c(O)c2O [Alizarin Red S]
> 100 µM (inactive)

* * *

Test system: SK-MEL-5
ASSAY_METHOD_TEXT: NCI tumour cell line growth inhibition, 48 h
Activity calls are given as the source filed them. Cut-off read from the data, not from the text of the source: active = GI50 up to about 1.1 µM and inactive = higher.
REPORTED_PROPERTY: GI50

COMPOUND: O=C1CCCN(c2ccccc2)N1
GI50: > 100 µM (inactive)
//
COMPOUND: Nc1ccn(C2CCC(CO)O2)c(=S)n1 (configuration not stated)
GI50: > 100 µM (inactive)

Fill in the blank: the reported GI50 of Nc1c(-c2ccc(Cl)cc2)[n+]([O-])c2ccccc2[n+]1[O-] is ____.
> 100 µM (inactive)

* * *

System: SW-620
ASSAY_METHOD_TEXT: NCI tumour cell line growth inhibition, 48 h
The source made the active and inactive calls. Cut-off read from the data, not from the text of the source: active = GI50 up to about 1.1 µM and inactive = higher.
Allowed answers: true (1) (active), false (0) (inactive)

Here are 2 compounds together with their reported answers.
COMPOUND: CCSc1cc(C(=O)OC)c2n(c1=O)CCCC2
CATEGORY: false (0)
--
COMPOUND: CC1(C)C(O)c2ccccc2OC1N1CCN(C2Oc3ccccc3C(O)C2(C)C)CC1 (stereo not given)
CATEGORY: false (0)

Per the assay record, what outcome was assigned to COc1ccc(Cn2nc(OCc3ccccn3)c3cc([N+](=O)[O-])ccc32)cc1 ?
false (0)

Now give it for CCCC1C(=O)CCc2c(OC)ccc(OC)c21 (stereo not given) too.
false (0)

Moving on to the next compound: Nc1nc(O)c(N)c(NCCOCP(=O)(O)O)n1
false (0)

Record: CC(C)(C)OC(=O)NCC(=O)NC1CC=CCC1NC(=O)CNC(=O)OC(C)(C)C (stereo not given)
false (0)

Please do the same for CCOC(=O)c1sc(Nc2cc(Cl)ccc2Cl)nc1C as well.
false (0)

What would you report for COc1ccc([C@@H]2C[C@@H]3C(=O)OC(=O)[C@@H]3c3c2c2ccccc2n3C)cc1 ?
false (0)

* * *

Test system: RPMI-8226
ASSAY_METHOD_TEXT: NCI tumour cell line growth inhibition, 48 h
Active and inactive are the calls of the source. Rule as the data show it: active = GI50 up to about 1.1 µM and inactive = higher.
Measured GI50 of individual entries

MOLECULE: COC(=O)c1cc(-c2ccc(OC)c(OC)c2)oc1-c1ccc(OC)c(OC)c1
TESTED_ON: RPMI-8226
GI50: 33.3 µM (inactive)

MOLECULE: CCOC(=O)/C(=C\NC[C@@H](C)O)c1nc2ccccc2[nH]1
TESTED_ON: RPMI-8226
GI50: 29.1 µM (inactive)

MOLECULE: COc1cccc2c1C(=O)c1c(O)c3c(c(O)c1C2=O)C[C@@](O)(C(C)=O)C[C@@H]3OC1CC([N+]([O-])(Cc2ccccc2)Cc2ccccc2)C(O)C(C)O1 (stereo partly specified)
TESTED_ON: RPMI-8226
GI50: 1.54 µM (inactive)

Item under review: O=C(O)c1ccc2nc(-c3ccccn3)c(-c3ccccn3)nc2c1 . Reported GI50?
> 100 µM (inactive)

Try the molecule c1ccc2c(c1)[C@@H]1O[C@@H]1[C@@]13O[C@@]21[C@H]1O[C@H]1c1ccccc13
9.16 µM (inactive)

Now the molecule CC1CCN(CC(=O)N2c3ccccc3Sc3cc4ccccc4cc32)CC1
> 100 µM (inactive)

* * *

Test system: A498
ASSAY_METHOD_TEXT: NCI tumour cell line growth inhibition, 48 h
Active and inactive are the calls of the source. Rule as the data show it: active = GI50 up to about 1.1 µM and inactive = higher.
GI50 values by entry

MOLECULE: CC1(C)OC2C(CO)OC(n3ccc(N)nc3=O)C2O1 (stereo not drawn)
TESTED_ON: A498
MEASUREMENT: 21.5 µM (inactive)

MOLECULE: CC(C)(C)OC(=O)NC1CCCC1C(=O)C1=CCCC1 (stereo not drawn)
TESTED_ON: A498
MEASUREMENT: > 100 µM (inactive)

Here is the next item to consider.
A498 / GI50 / COc1cc(NS(C)(=O)=O)ccc1NCc1c[nH]c2ccc3nc(C)ccc3c12 : value?
20.3 µM (inactive)

* * *

Consider the following compounds and their measured GI50 readings.
Test system: Malme-3M
ASSAY_METHOD_TEXT: NCI tumour cell line growth inhibition, 48 h
Activity calls are given as the source filed them. Rule as the data show it: active = GI50 up to about 1.1 µM and inactive = higher.

# annotated cases, reported GI50 shown
COMPOUND: CC(C)(C)C1=C(Br)C(C(C)(C)C)OP1(=O)O (stereo not drawn)
GI50: > 100 µM (inactive)
//
COMPOUND: Nc1nc(O)c(N)c(NCCOCP(=O)(O)O)n1
GI50: > 100 µM (inactive)
//
COMPOUND: CC1CCN(CC(=O)N2c3ccccc3Sc3cc4ccccc4cc32)CC1
GI50: > 100 µM (inactive)

I have this compound here, CC(=O)c1c(SCCN2CCCCCC2)n(-c2ccccc2)c(=S)n(-c2ccccc2)c1=O , and I need its recorded GI50.
1.51 µM (inactive)

Try this compound too: N#CC(/N=N/c1ccc(Cl)cc1)c1nc2ccccc2o1 (stereo not drawn)
34.6 µM (inactive)

// repeat for CN(C)CCCCN1c2ccccc2Sc2ccc(C(=O)c3ccccc3)cc21 and report
1.72 µM (inactive)

What do we get for COC(=O)c1cc(-c2ccc(OC)c(OC)c2)oc1-c1ccc(OC)c(OC)c1 ?
43.7 µM (inactive)

Moving on to the next compound: O=C1NC2C(CCO)CC=C[C@H]2c2cc3c(cc21)OCO3 (stereo partly drawn)
> 100 µM (inactive)

* * *

System: TK-10
ASSAY_METHOD_TEXT: NCI tumour cell line growth inhibition, 48 h
Activity calls are given as the source filed them. No stated cut-off is given here; in the data, active = GI50 up to about 1.1 µM and inactive = higher.
Recorded GI50 for the following compounds

Please provide the recorded GI50 for NC(Cc1ncccn1)C(=O)O (configuration not stated) , tested on TK-10.
> 100 µM (inactive)

Entry to check: CCC(=O)NCCc1c2c3c(ccnc3c3ncsc13)-c1ccccc1N2
6.32 µM (inactive)

What do you have for N#CC1(C#N)NC(c2ccccc2)C(C#N)(C#N)NC1c1ccccc1 (configuration not stated) ?
> 100 µM (inactive)

* * *

Test system: CAKI-1
ASSAY_METHOD_TEXT: NCI tumour cell line growth inhibition, 48 h
Active and inactive are the calls of the source. No stated cut-off is given here; in the data, active = GI50 up to about 1.1 µM and inactive = higher.
REPORTED_PROPERTY: GI50

Known GI50 results, listed for orientation:
MOLECULE: CCN(C(=O)/C=C/c1ccco1)c1ccccc1
MEASUREMENT: > 100 µM (inactive)

MOLECULE: COc1ccc(-c2cc3ccccc3oc2=O)cc1OC
MEASUREMENT: > 100 µM (inactive)

MOLECULE: Cc1ccc(C(=O)C2=CN=C3C(=O)N(c4ccccc4)N(C)C3(C)C2=N)cc1 (stereo unspecified)
MEASUREMENT: > 100 µM (inactive)

MOLECULE: CC(N)C(C)c1ccccc1 (stereo unspecified)
MEASUREMENT: > 100 µM (inactive)

MOLECULE: Cc1cc(C)c(C2[C@H]3C(=O)N(c4ccc(Cc5ccc(N6C(=O)[C@@H]7ON(c8ccccc8)C(c8c(C)cc(C)cc8C)[C@@H]7C6=O)cc5)cc4)C(=O)[C@H]3ON2c2ccccc2)c(C)c1 (stereo partly specified)
MEASUREMENT: 57.9 µM (inactive)

GI50 lookup needed for CC1CCN(CCC(=O)CC(c2ccccc2)c2c(O)c3ccccc3oc2=O)CC1 (stereo unspecified) , thanks.
> 100 µM (inactive)

* * *

System: DMS-273
ASSAY_METHOD_TEXT: NCI tumour cell line growth inhibition, 48 h
Active and inactive are the calls of the source. No stated cut-off is given here; in the data, active = GI50 up to about 1.1 µM and inactive = higher.
REPORTED_PROPERTY: GI50

Solved entries:
MOLECULE: CN(Cc1ccccc1)/C(=N\C#N)N(Cc1ccccc1)Cc1ccccc1
GI50: 20.9 µM (inactive)
--
MOLECULE: COC(=O)C1=CC(=O)C(C(=O)Nc2ccc(OC)cc2)C(c2ccccc2)O1 (configuration not stated)
GI50: 37.5 µM (inactive)
--
MOLECULE: CCN(CC)CCCNC(=O)C1COc2cc(-c3cc(=O)c4ccccc4o3)ccc2O1 (configuration not stated)
GI50: 65.5 µM (inactive)
--
MOLECULE: CCCCCCCCCCCCCC/C(C(=O)OC)=C(/O)C(=O)OCC
GI50: 94 µM (inactive)
--
MOLECULE: CCCCCCCCCCNC(=S)OC
GI50: 51.5 µM (inactive)
--
MOLECULE: O=c1c(Br)cc2nc3ccccc3sc-2c1Br
GI50: > 100 µM (inactive)
--
MOLECULE: NC(=O)CC(N/C=C1/N=C(c2ccccc2)OC1=O)C(=O)O (configuration not stated)
GI50: > 100 µM (inactive)
--
MOLECULE: O=C1OC(c2ccccc2)(c2ccccc2)c2ccc3ccc(F)cc3c21
GI50: 7.21 µM (inactive)
--
MOLECULE: C=C1C2Oc3ccccc3C1N(c1ccccc1)O2 (configuration not stated)
GI50: > 10 µM (inactive)
--
MOLECULE: CN(C)c1ccc(C(C#N)NNC(=O)Cc2ccccc2)cc1 (configuration not stated)
GI50: > 100 µM (inactive)

Give its GI50 value. Item: NC1=NC2=C(CCCC2)C(c2cccs2)S1 (configuration not stated)
> 100 µM (inactive)

// repeat for Cc1cc(C)c(C2[C@H]3C(=O)N(c4ccc(Cc5ccc(N6C(=O)[C@@H]7ON(c8ccccc8)C(c8c(C)cc(C)cc8C)[C@@H]7C6=O)cc5)cc4)C(=O)[C@H]3ON2c2ccccc2)c(C)c1 (some centres not stated) and report
> 100 µM (inactive)
